system: Collinsella aerofaciens; assay: growth AUC relative to DMSO control (median of replicates) (fraction); higher = more growth (less inhibition), active = hit call of the paper; conditions: 20 µM; 24 h
Tick criterion met if growth AUC is 1 or greater. Tick criterion not met if growth AUC is less than 1.

### Prompt Could you verify whether the entry COP(=S)(OC)SCn1nnc2ccccc2c1=O shows growth AUC of no less than 1?
### Response criterion not met

### Prompt Could you verify whether the entry CCOc1cc(OP(=S)(OC)OC)nc(CC)n1 shows growth AUC of no less than 1?
### Response criterion met

### Prompt Could you verify whether the entry C[Si](Cn1cncn1)(c1ccc(F)cc1)c1ccc(F)cc1 shows growth AUC of no less than 1?
### Response criterion not met

### Prompt Could you verify whether the entry C=CCC1=C(C)C(OC(=O)[C@@H]2[C@@H](C=C(C)C)C2(C)C)CC1=O (stereo partly specified) shows growth AUC of no less than 1?
### Response criterion met

### Prompt Could you verify whether the entry Cc1c(COC(=O)[C@@H]2[C@H](/C=C(\Cl)C(F)(F)F)C2(C)C)cccc1-c1ccccc1 shows growth AUC of no less than 1?
### Response criterion not met

### Prompt Could you verify whether the entry ClC1=C(Cl)[C@]2(Cl)C3CC=CC3[C@@]1(Cl)C2(Cl)Cl (stereo partly specified) shows growth AUC of no less than 1?
### Response criterion not met
